Record set of IC50 for target or system mTOR (Homo sapiens, UniProt P42345).

# STRUCTURE, IC50
records = [
    ("FC(F)c1nc2ccccc2n1-c1nc(NC2(Cc3ccccc3)CC2)nc(N2CCOCC2)n1", "> 0.5 µM"),
    ("FC(F)c1nc2ccccc2n1-c1nc(NC2(Cc3ccccc3)CCCC2)nc(N2CCOCC2)n1", "> 0.5 µM"),
    ("FC(F)c1nc2ccccc2n1-c1nc(NC2(Cc3ccccc3)CCC2)nc(N2CCOCC2)n1", "> 0.5 µM"),
]

---

The reader will find pIC50 measurements below, all made with p110γ (Homo sapiens, UniProt P48736).
Sequence (P48736 whole entry, species assumed): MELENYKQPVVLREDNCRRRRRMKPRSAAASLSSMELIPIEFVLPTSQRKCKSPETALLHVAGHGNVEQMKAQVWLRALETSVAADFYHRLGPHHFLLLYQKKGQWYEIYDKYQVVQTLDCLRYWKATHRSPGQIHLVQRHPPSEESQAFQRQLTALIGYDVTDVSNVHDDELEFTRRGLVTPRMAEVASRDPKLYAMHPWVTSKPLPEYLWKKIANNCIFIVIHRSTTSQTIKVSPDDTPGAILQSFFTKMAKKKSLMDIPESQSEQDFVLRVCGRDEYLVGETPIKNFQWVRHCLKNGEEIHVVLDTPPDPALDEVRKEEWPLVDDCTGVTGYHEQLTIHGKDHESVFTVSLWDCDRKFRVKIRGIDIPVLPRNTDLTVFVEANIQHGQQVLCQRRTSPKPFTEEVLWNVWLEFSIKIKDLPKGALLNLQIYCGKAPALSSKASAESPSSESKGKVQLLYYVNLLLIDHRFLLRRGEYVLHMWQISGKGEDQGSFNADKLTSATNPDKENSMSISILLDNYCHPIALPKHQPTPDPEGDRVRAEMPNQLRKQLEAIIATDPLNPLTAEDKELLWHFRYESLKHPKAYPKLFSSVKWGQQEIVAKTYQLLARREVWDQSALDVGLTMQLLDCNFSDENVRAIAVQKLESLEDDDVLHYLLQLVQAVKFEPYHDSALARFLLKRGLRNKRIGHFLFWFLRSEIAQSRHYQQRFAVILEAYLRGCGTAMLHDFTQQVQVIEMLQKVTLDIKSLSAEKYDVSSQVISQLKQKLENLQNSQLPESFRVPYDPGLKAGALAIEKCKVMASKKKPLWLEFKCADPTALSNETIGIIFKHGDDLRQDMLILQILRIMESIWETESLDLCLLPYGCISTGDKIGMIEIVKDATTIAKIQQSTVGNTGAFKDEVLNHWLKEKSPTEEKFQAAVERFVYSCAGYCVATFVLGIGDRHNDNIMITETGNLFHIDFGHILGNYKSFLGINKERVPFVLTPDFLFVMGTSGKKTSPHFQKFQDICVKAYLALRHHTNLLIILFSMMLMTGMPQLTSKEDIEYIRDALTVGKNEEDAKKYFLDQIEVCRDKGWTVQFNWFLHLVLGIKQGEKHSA
pIC50: −log10 of the molar value.

# STRUCTURE, pIC50
records = [
    ("FC(F)c1nc2ccccc2n1-c1nc(NC2(Cc3ccccc3)CCCC2)nc(N2CCOCC2)n1", "6.30 to 6.70"),
    ("FC(F)c1nc2ccccc2n1-c1nc(NC2(Cc3ccccc3)CC2)nc(N2CCOCC2)n1", "< 6.30"),
    ("Cc1ccccc1CC1(Nc2nc(N3CCOCC3)nc(-n3c(C(F)F)nc4ccccc43)n2)CC1", "< 6.30"),
]

---

Dear all, this message contains IC50 results, target or system p110β (Homo sapiens).

# MOLECULE, IC50
records = [
    ("FC(F)c1nc2ccccc2n1-c1nc(NC2(Cc3ccc(Br)cc3)CCCCC2)nc(N2CCOCC2)n1 [Compound A6]", "> 500 nM"),
    ("Cc1ccccc1CC1(Nc2nc(N3CCOCC3)nc(-n3c(C(F)F)nc4ccccc43)n2)CC1 [Compound A8]", "> 500 nM"),
    ("FC(F)c1nc2ccccc2n1-c1nc(NC2(Cc3ccccc3)CC2)nc(N2CCOCC2)n1 [Compound A5]", "> 500 nM"),
    ("FC(F)c1nc2ccccc2n1-c1nc(NC2(Cc3ccccc3)CCCC2)nc(N2CCOCC2)n1 [Compound A7]", "100 to 200 nM"),
    ("FC(F)c1nc2ccccc2n1-c1nc(NC2(Cc3ccccc3)CCC2)nc(N2CCOCC2)n1 [Compound A11]", "≤ 100 nM"),
    ("FC(F)c1nc2ccccc2n1-c1nc(NC2(Cc3ccccc3Cl)CC2)nc(N2CCOCC2)n1 [Compound A10]", "> 500 nM"),
]
